From: ChEMBL document CHEMBL3779872

biological target: Trace amine-associated receptor 1 (Mus musculus); assay: Agonist activity at mouse TAAR1 expressed in recombinant HEK293 cells assessed as cAMP accumulation after 30 mins by luminometer; format: functional, cell-based
Sequence (Q923Y8 whole entry): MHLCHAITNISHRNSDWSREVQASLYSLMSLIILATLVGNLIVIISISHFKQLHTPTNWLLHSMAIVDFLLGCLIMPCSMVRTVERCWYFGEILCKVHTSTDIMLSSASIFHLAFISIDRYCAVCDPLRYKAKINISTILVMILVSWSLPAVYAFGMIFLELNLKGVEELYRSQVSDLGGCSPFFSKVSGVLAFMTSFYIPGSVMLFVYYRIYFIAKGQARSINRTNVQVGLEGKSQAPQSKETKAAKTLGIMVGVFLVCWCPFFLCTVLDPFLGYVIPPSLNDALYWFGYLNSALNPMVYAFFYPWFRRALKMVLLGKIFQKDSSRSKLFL
measure: EC50 (nM)
Quick reminder: number only, in nM, skip the unit.

*Q* Which EC50 reading was recorded for the molecule `CCN(C[C@H]1COC(N)=N1)c1ccccc1` ?
*A* 3

====

logD by entry:
assay: Lipophilicity, logD of the compound at pH 7.4; format: physicochemical; settings: buffer
Lab note: write the figure by itself, no unit.

>>> value("Cc1c(F)cccc1[C@H]1COC(N)=N1")
1.12

Now let's try a different one.
*Q* Which logD reading was recorded for the compound `CC[C@@H](C[C@H]1COC(N)=N1)c1ccccc1` ?
*A* 1.29
